Experimental Target: T1, Human 41BB antigen (BLI) (human, UniProt Q07011 24-183)
T1 construct: also called 41BB protein
T1 sequence (Q07011 24-183 limits assumed): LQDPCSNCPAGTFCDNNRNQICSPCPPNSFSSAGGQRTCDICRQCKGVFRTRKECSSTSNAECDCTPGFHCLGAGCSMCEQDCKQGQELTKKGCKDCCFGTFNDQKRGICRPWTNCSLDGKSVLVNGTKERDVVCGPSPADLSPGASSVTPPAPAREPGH
Assay Explanation: BLI, VHH-His on anti-His tips, human 41BB in solution;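 note: association tracked for 200 s, after which dissociation was followed in 1×PBS free of 41BB protein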
Endpoint Label: kon (M⁻¹ s⁻¹)
One number for each entry, in M⁻¹ s⁻¹.

Give kon for all binders that follow.
1. 4-1BB-1 (VHH, not shown: small tags and cut ends) VHH: QVQLVESGGGLVQAGGSLRLSCAASENIFSFNAMAWYRQAPGKQRELVALITGDGTTKYADSVKGRFTIARLNAKNTVNLEMNSLKPEDTAVYTCAALRNSDRTSWGQGTQVTVSS
2. 4-1BB-10 (VHH, not shown: small tags and cut ends) VHH: EVQLVESGGGLVQAGGSLRLSCAASGAIFSYNGMAWYRQAPGKQREFVAVITPDGTTKYGDSVKGRFTISRDITKNTVDLEMNSLKPEDTAVYTCAALRNSGSTSWGQGTQVTVSS
3. 4-1BB-59 (VHH, not shown: small tags and cut ends) VHH: EVQLVESGGGLVQPGESLRLSCAASGDTVSGYVMLWWRQAPGKERELVAAISSVGYTYYTDSVKGRFTISRDNAKNTVYLQMNSLKPEDTAVYYCAADPASISTRSAYWGQGTQVTVSS
4. 4-1BB-3 (VHH, not shown: small tags and cut ends) VHH: EVQLVESGGGLVQAGGSLRLSCAASGNIFSYNGMAWYRQAPGNQRELVAVVAIDGTAKYADTVKGRFTISRDNIKNTVNLEMNSLKPEDTAVYTCAALRNSGSTSWGQGTQVTVSS

a:
1. 834000
2. 820000
3. 512000
4. 708000
